targetDesc: monkey GPC3-His protein (monkey)
assayOverview: ELISA, monkey GPC3-His coated; antibody 0.53 nM
assayReadout: OD450 nm
Lab note: record the figure alone, no unit after it.

Which OD450 nm value is on record for hAb003LH1L1 (antibody, human IgG1, V domains shown) VH: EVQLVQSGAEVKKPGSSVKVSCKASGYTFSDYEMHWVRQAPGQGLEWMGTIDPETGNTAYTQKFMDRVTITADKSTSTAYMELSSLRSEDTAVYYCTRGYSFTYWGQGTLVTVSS VL: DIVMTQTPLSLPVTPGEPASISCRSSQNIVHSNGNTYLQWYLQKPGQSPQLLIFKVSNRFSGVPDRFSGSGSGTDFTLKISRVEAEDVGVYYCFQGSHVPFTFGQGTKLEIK ?
2.65
